# target_desc: hQC (Homo sapiens)
# Sequence (Q16769 29-361): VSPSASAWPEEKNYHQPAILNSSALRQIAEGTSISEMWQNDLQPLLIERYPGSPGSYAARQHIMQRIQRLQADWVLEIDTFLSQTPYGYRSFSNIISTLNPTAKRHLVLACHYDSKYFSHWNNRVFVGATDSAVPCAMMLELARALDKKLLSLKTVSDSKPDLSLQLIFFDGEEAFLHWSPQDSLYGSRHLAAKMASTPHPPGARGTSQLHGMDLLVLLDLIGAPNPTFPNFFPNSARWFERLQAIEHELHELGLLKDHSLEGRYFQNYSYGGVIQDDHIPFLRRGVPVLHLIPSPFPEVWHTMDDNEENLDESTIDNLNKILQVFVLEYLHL
# assay_remarks: Fluorometric assay of glutaminyl cyclase (QC) inhibition, H-Gln-βNA or H-Gln-AMC substrate
# Type: biochemical
# cond: read-out: IC50
property_label: pIC50
# pIC50 is unitless: minus log10 of the molar concentration; print number only

What pIC50 value was documented for this compound, O=C1N/C(=N/Cc2ccccc2)C(c2ccc(Cl)c(F)c2)N1CCCn1ccnc1 (centres unmarked) [Compound 96] ?
5.17

Further cases:
Request the reported pIC50 associated with O=C1CCCN1CCCN=C1NC(=S)N(c2ccc3[nH]cnc3c2)C1c1ccc2nsnc2c1 (centres unmarked) [Compound 231]
5.40

For COC(=O)C(C)N=C1NC(=S)N(c2ccc3[nH]cnc3c2)C1c1ccccc1 (centres unmarked) [Compound 304] , what is its reported pIC50?
5.12

Give its pIC50 value. Item: Cc1cccc(C2/C(=N/CCCN(C)C)NC(=O)N2c2ccc3[nH]cnc3c2)c1 (centres unmarked) [Compound 253]
5.03

Request the reported pIC50 associated with O=C(C/N=C1\NC(=O)N(CCCn2ccnc2)C1c1ccccc1Cl)N1CCc2ccccc2C1 (centres unmarked) [Compound 71]
5.40

What pIC50 value was documented for this compound, CC1=CC(C)C(C2/C(=N/CC(=O)N3CCCN(C)CC3)NC(=O)N2c2ccc3[nH]cnc3c2)CC1 (centres unmarked) [Compound 243] ?
5.24

For the compound O=C1N/C(=N\CCC(c2ccccc2)c2ccccc2)C(c2cccc(F)c2F)N1CCCn1ccnc1 (centres unmarked) [Compound 107] , what pIC50 is on record?
5.17

Fill in the blank: the reported pIC50 of S=C1N/C(=N\C2CCCc3ccccc32)C(c2ccccc2Cl)N1c1ccc2[nH]cnc2c1 (centres unmarked) [Compound 278] is ____.
5.17
